System: TGF-β-stimulated SMAD3 phosphorylation in BEAS-2B cells
Assay: Cellular ALK5 potency assay, inhibition of TGF-β stimulated pSMAD3 formation in BEAS-2B cells
Format: cell-based
Conditions: Homo sapiens, pSMAD3, TGF-β 10 ng/mL, read-out: BEAS2B pIC50 (converted)
Method: The potency of compounds of the present disclosure for inhibition of TGF-β-stimulated SMAD3 phosphorylation was measured in BEAS-2B cells, a human lung epithelial cell line. […] For the assay, BEAS-2B cells were seeded at 7,500 cells/well (25 μL/well) in a 384-well plate and cultured overnight. […] AlphaLISA Acceptor and Detector beads (PerkinElmer) were added 2 hours apart, then incubated overnight to be read the next day. […] Data are expressed as pIC50 (negative decadic logarithm IC50) values.
property_label: IC50

Task item: Form: Entry = Cc1cccc(-c2nccc(Nc3ccnc(Nc4ccc(NC(=O)N5CCN(C)CC5)cc4)n3)n2)n1 [Compound 330] | System = TGF-β-stimulated SMAD3 phosphorylation in BEAS-2B cells | IC50 = ____
Reply: 25.1 to 158 nM

Task item: Form: Entry = COC(=O)C1CNCCN1c1ccc(Nc2nccc(Nc3ccnc(-c4cccc(C)n4)n3)n2)cc1 (stereo not shown) [Compound 204] | System = TGF-β-stimulated SMAD3 phosphorylation in BEAS-2B cells | IC50 = ____
Reply: 25.1 to 158 nM

Task item: Form: Entry = Cc1cccc(-c2nccc(Nc3ccnc(Nc4ccc(CN5CCCC(C(=O)OC6CNC6)C5)cc4)n3)n2)n1 (stereo not shown) [Compound 138] | System = TGF-β-stimulated SMAD3 phosphorylation in BEAS-2B cells | IC50 = ____
Reply: 25.1 to 158 nM

Task item: Form: Entry = Cc1cccc(-c2nccc(Nc3ccnc(Nc4ccc(N5CCN(CCO)CC5)cc4)n3)n2)n1 [Compound 534] | System = TGF-β-stimulated SMAD3 phosphorylation in BEAS-2B cells | IC50 = ____
Reply: 25.1 to 158 nM

Task item: Form: Entry = Cc1cccc(-c2nccc(Nc3ccnc(Nc4nc(CN(C)C5CNC5)cs4)n3)n2)n1 [Compound 467] | System = TGF-β-stimulated SMAD3 phosphorylation in BEAS-2B cells | IC50 = ____
Reply: 25.1 to 158 nM

Task item: Form: Entry = Cc1cccc(-c2nccc(Nc3ccnc(Nc4ccc(CN5CCC(C(=O)O[C@H]6CCN(C)C6)CC5)cc4)n3)n2)n1 [Compound 297] | System = TGF-β-stimulated SMAD3 phosphorylation in BEAS-2B cells | IC50 = ____
Reply: 200 to 1260 nM

Task item: Form: Entry = Cc1cccc(-c2nccc(Nc3ccnc(Nc4ccc(NCCN5CCNCC5)cc4)n3)n2)n1 [Compound 157] | System = TGF-β-stimulated SMAD3 phosphorylation in BEAS-2B cells | IC50 = ____
Reply: 200 to 1260 nM

* * *

Assign Ki to each entry below.
biological target: recombinant human ALK5 (TGF-βR1) protein (Homo sapiens, UniProt P36897); test: Biochemical ALK5 (TGF-βR1) assay to measure pKi (LANCE Ultra ULight kinase assay); settings: apparent pKi, converted from pIC50 by Cheng-Prusoff
Sequence (P36897 34-503): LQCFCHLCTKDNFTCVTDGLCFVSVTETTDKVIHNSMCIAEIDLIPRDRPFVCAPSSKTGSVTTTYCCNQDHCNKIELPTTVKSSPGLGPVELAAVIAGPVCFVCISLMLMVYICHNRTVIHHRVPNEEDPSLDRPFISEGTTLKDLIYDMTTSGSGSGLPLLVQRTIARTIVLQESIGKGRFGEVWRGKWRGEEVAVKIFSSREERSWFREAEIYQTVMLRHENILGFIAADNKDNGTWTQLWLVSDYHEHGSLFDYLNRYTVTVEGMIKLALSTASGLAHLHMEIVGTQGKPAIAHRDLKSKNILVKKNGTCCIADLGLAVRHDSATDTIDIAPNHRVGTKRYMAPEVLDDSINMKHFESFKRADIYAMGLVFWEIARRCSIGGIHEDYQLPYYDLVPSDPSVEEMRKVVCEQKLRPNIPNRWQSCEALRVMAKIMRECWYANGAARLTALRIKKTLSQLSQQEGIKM

Task item: State the recorded Ki for this entry: Cc1cccc(-c2nccc(Nc3ccnc(Nc4nc(C(=O)O[C@H]5CCN(C)C5)cs4)n3)n2)n1 [Compound 323]
Reply: 398 to 3160 pM

Task item: State the recorded Ki for this entry: Cc1cccc(-c2nccc(Nc3ccnc(Nc4ccc(CN5CC(C(=O)O[C@@H]6CCN(C)C6)C5)cc4)n3)n2)n1 [Compound 69]
Reply: 39.8 to 316 pM

Task item: State the recorded Ki for this entry: Cc1cccc(-c2nccc(Nc3ccnc(Nc4ccc5c(c4)NCCC5)n3)n2)n1 [Compound 225]
Reply: 39.8 to 316 pM

Task item: State the recorded Ki for this entry: Cc1cccc(-c2nccc(Nc3ccnc(Nc4ccc(N5CCC(N6CCCC6)CC5)cc4)n3)n2)n1 [Compound 123]
Reply: ≤ 31.6 pM
